Where these numbers come from: the supplement of paper PMC9112550

Reported shrunken log2 fold change values are given for each entry in this list.
# System: Escherichia coli TOP10;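 also: peptides expressed intracellularly from a pBAD plasmid library in pooled LB shake-flask culture, induced with 0.3% L-arabinose, DNA abundance read by NGS, three biological replicates, DESeq2 with apeglm shrinkage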
# EXPERIMENT NOTES: shrunken log2 fold change of peptide-encoding DNA abundance (4.5 h post-induction vs induction); higher = less antimicrobial activity (less host growth inhibition)
# MEASUREMENT SETUP: time post-induction: 4.5 h; library: site-saturation at positions 5, 18, 19, 20
Lab note: jot down the number only; don't add units.

Would you please look over these solved cases?
RESIDUE SEQUENCE	shrunken log2 fold change
RRIRDRPPRLPRPRPRPWHYPRP	-0.225
RRIRLRPPRLPRPRPRPYLWPRP	-0.0439
RRIRMRPPRLPRPRPRPSISPRP	0.000307
RRIRMRPPRLPRPRPRPCMMPRP	-0.124

INPUT: Recorded shrunken log2 fold change for RRIRARPPRLPRPRPRPMYTPRP , please?
OUTPUT: -0.0517

INPUT: What do we get for RRIRFRPPRLPRPRPRPWGMPRP ?
OUTPUT: -0.171

INPUT: What do we get for RRIRCRPPRLPRPRPRPYMWPRP ?
OUTPUT: -0.913

INPUT: What do we get for RRIRERPPRLPRPRPRPKAGPRP ?
OUTPUT: 0.174

INPUT: What do we get for RRIRYRPPRLPRPRPRPKGMPRP ?
OUTPUT: -0.111

INPUT: What do we get for RRIRYRPPRLPRPRPRPYNPPRP ?
OUTPUT: -0.256

INPUT: What do we get for RRIRSRPPRLPRPRPRPYITPRP ?
OUTPUT: -0.535
